Target: SIRT1 (Homo sapiens, UniProt Q96EB6)
Sequence (Q96EB6 1-747): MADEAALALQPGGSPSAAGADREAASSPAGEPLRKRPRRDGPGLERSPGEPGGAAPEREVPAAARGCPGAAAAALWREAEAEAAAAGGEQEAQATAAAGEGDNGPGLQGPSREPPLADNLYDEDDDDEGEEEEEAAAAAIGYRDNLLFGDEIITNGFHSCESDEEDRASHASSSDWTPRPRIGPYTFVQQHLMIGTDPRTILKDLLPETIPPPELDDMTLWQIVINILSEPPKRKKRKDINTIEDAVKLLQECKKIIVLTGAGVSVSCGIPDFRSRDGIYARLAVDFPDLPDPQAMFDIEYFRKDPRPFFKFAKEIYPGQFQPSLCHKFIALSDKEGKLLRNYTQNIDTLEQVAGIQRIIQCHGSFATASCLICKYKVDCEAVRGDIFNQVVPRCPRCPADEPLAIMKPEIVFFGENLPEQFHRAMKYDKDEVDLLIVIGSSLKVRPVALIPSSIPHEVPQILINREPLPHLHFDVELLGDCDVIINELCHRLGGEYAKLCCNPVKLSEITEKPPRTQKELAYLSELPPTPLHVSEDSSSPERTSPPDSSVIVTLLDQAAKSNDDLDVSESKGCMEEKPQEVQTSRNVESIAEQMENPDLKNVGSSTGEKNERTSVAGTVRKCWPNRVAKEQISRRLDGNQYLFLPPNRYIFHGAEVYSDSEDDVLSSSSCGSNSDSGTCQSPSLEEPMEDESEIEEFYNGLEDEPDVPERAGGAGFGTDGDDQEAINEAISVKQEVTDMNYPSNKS
Assay: TAMRA based mass spectrometry assay of SIRT1 activity
Assay type: biochemical
Conditions: TAMRA assay; concentration giving 150% activation of SIRT1

{"columns": ["compound", "TAMRA EC1.5 (μM)"],
 "data": [
  ["O=C(Nc1cnn2ccc(-c3ccccc3C(F)(F)F)nc12)c1cscn1 [Compound 802]", "B (EC1.5 1-25 μM)"],
  ["Cc1cc(C)nc(C(=O)Nc2cnn3ccc(-c4ccccc4OC(F)(F)F)nc23)c1 [Compound 750]", "A (EC1.5<1 μM)"],
  ["Cc1nn2ccc(-c3ccccc3C(F)(F)F)nc2c1C(=O)Nc1ccc(F)cn1 [Compound 686]", "A (EC1.5<1 μM)"],
  ["Cc1nc2ccc(-c3ccccc3C(F)(F)F)nn2c1C(=O)Nc1ccnn1C(C)(C)C [Compound 672]", "B (EC1.5 1-25 μM)"]
]}
